Biological target: AR (Homo sapiens)
Construct: endogenous in cells; host or cells: VCaP cells
Sequence (P10275 1-920): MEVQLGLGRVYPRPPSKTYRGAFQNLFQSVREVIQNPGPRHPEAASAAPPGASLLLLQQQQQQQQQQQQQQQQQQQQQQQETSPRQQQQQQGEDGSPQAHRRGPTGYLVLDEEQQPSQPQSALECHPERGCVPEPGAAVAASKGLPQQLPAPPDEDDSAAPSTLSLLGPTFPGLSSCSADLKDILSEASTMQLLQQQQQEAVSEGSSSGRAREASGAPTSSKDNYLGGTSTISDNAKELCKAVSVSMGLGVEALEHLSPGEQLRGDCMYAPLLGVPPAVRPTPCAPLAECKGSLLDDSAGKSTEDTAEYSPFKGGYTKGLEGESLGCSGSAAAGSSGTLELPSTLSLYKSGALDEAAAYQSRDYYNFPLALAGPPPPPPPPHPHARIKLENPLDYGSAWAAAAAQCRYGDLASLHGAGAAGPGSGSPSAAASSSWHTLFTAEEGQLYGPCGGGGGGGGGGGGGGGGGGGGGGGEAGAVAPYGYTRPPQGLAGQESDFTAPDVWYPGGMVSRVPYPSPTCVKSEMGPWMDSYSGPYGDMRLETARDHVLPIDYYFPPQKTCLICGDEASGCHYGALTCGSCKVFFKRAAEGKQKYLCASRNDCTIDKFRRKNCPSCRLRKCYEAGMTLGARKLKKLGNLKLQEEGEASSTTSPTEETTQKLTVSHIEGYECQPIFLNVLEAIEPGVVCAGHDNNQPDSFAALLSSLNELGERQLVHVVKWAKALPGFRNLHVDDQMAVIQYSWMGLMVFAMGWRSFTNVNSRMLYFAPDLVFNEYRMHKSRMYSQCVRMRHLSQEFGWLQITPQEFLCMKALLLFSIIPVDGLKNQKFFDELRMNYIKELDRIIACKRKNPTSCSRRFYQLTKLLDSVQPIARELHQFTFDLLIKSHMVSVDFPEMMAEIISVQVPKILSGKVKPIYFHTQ
Assay: VCAP AR Degradation Assay
Assay type: cell-based
Settings: VCaP cells, 24 h, AR ELISA; concentration of compound when AR level = 50% of DMSO control (50% AR degradation)
# DC50 values compiled below

// field: DC50; key: C[C@@H]1C[C@H](CCO[C@H]2CC[C@H](N3C(=S)N(c4cnc(C#N)c(C(F)(F)F)c4)C(=O)C3(C)C)CC2)C[C@H](C)N1CC(=O)Nc1cccc2c(N3CCC(=O)NC3=O)nn(C)c12 [Cmpd 28] ; value = ≤ 2 nM

====

Molecular target: AR (Homo sapiens, UniProt P10275)
Construct: endogenous in cells; host or cells: VCaP cells
Test: VCAP AR Degradation Assay
Type: cell-based
Conditions: VCaP cells, 24 h, AR ELISA; lowest measured AR level normalized to DMSO control (AR degradation efficiency)
Counter-ions that a name gives are not always drawn.
endpoint: Y

{"columns": ["compound", "target-or-system", "reported-measurement"],
 "data": [
  ["C[C@@H]1CN(CCO[C@H]2CC[C@H](N3C(=S)N(c4ccc(C#N)c(C(F)(F)F)c4)C(=O)C3(C)C)CC2)C[C@H](C)N1CCCOc1cccc2c(N3CCC(=O)NC3=O)nn(C)c12 [Cmpd 16, hydrochloride]", "AR (Homo sapiens, UniProt P10275)", "*** (30%<Y<60%)"],
  ["Cn1nc(N2CCC(=O)NC2=O)c2cccc(NC(=O)CN3CCN(CCCO[C@H]4CC[C@H](N5C(=S)N(c6cnc(C#N)c(C(F)(F)F)c6)C(=O)C5(C)C)CC4)C[C@@H]3C(F)(F)F)c21", "AR (Homo sapiens, UniProt P10275)", "* (0<Y≤20%)"],
  ["C[C@@H]1C[C@@H](CCOC2CCC(N3C(=S)N(c4cnc(C#N)c(C(F)(F)F)c4)C(=O)C3(C)C)CC2)C[C@H](C)N1CC(=O)Nc1cccc2c(N3CCC(=O)NC3=O)nn(C)c12 (some centres unmarked)", "AR (Homo sapiens, UniProt P10275)", "* (0<Y≤20%)"],
  ["C[C@@H]1CN(CCO[C@H]2CC[C@H](N3C(=S)N(c4ccc(C#N)c(C(F)(F)F)c4)C(=O)C3(C)C)CC2)C[C@H](C)N1CCNc1cccc2c(N3CCC(=O)NC3=O)nn(C)c12 [Cmpd 18, hydrochloride]", "AR (Homo sapiens, UniProt P10275)", "*** (30%<Y<60%)"]
]}
